Property: median seed-adjusted z-score; scope: individual sequences
Assay: Novel Modifiers of Survival Motor Neuron (SMN) Protein: Gene Identification via Genome-wide siRNA Screen;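 also: luminescence tracks full-length SMN protein made from the SMN2 reporter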
Settings: HEK293T SMN2-luciferase reporter, siRNA knockdown, 72 h; actives lie on both sides
In all, about 31,000 sequences went through this assay and about 1,400 (4.5%) were called active. The full list was thinned out, with actives kept by preference.
// no unit string in output, number only

Consider the following illustrative entries.
GGGCUAGAUCUGUAUCUUATT against TSC22D3: 0.0129
GGAACUACGUCCACACCCATT against GHRHR: 0
CAUUGAAACUGAUAAACCATT against ARCN1: -1.25

// next item, median seed-adjusted z-score requested
Inquiry: Reported median seed-adjusted z-score, sequence GGACAACAGUCGGUCGAAUTT against ANP32C : ____
Reply text: -0.421

----------
Assay: Novel Modifiers of Survival Motor Neuron (SMN) Protein: Gene Identification via Genome-wide siRNA Screen;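 also: luminescence tracks full-length SMN protein made from the SMN2 reporter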
Conditions: HEK293T SMN2-luciferase reporter, siRNA knockdown, 72 h; actives lie on both sides
Out of some 31,000 sequences screened, about 1,400 (4.5%) were called active.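 Rule for the calls: active = median seed-adjusted z-score above 1 or below -1; inactive = the rest.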 Shown is part of a subset that was picked to be rich in actives.
Entry note: the call must match one of active, inactive

CUAUUUUACCUUUACAAGATT against ALDH1A2: inactive
GUGUAGGGAUAGUUACCAATT against ZNF518A: inactive
GGAAGAAGGUAUUCCGUAUTT against CHD5: inactive
GGACAGACACGUCAGCAAATT against TMEM171: inactive
GGAUGAUGAGUACUCUGAATT against COL7A1: active
GGCUAUCAUCUACACCCGATT against UGCG: inactive
GGACAGAUCUGCAAAGAGATT against CETP: inactive
AAAGUGGAUUGCACACAGATT against TGFB1I1: inactive

Inquiry: What is the recorded call for this sequence in the test? GCAGCACGAAGGAUACUGATT against ABCA4
Reply text: active

Inquiry: Test call for this sequence, please: UCAUCAAUGCUACUGGUUATT against TM7SF2
Reply text: inactive

Inquiry: # fetch the recorded call for GUACGAGACCUGUUCCAGATT against UCK2 here
Reply text: active

Inquiry: Entry CGAAGGAUAUCUAUCAUCATT against NXF1 : call = ?
Reply text: active

----------
Assay: Novel Modifiers of Survival Motor Neuron (SMN) Protein: Gene Identification via Genome-wide siRNA Screen;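 also: luminescence tracks full-length SMN protein made from the SMN2 reporter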
Details: HEK293T SMN2-luciferase reporter, siRNA knockdown, 72 h; actives lie on both sides
The whole screen tested about 31,000 sequences, of which about 1,400 (4.5%) were called active.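 Rule for the calls: active = median seed-adjusted z-score above 1 or below -1; inactive = the rest.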 The entries come from a sample that favours actives as a whole.
Just give me one of these, please: true (1) (active), false (0) (inactive)

GAAUGCUGUUUAUCUUAAUTT against PNPLA1: false (0)
GGAGACAAGCACAAGCUGATT against S100B: false (0)
ACCUGAUGGUGGGCGCAAATT against MYBPC3: false (0)
CCACCGACGACAAUCUGUATT against ATP4A: false (0)

Inquiry: What is the recorded call for this sequence in the test? AGAGCACCAGAAGACACAATT against GJC3
Reply text: false (0)

Inquiry: Recorded call for CGAUUUAUCCGAUGCCCUUTT against CD99 ?
Reply text: false (0)

----------
Experiment: Novel Modifiers of Survival Motor Neuron (SMN) Protein: Gene Identification via Genome-wide siRNA Screen;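 also: luminescence tracks full-length SMN protein made from the SMN2 reporter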
Conditions: HEK293T SMN2-luciferase reporter, siRNA knockdown, 72 h; actives lie on both sides
Among all 31,000 sequences or so, about 1,400 (4.5%) were called active. Only a selection was taken, and actives are over-represented in it overall.
The label depends only on median seed-adjusted z-score: true (1) if it is at least -0.1, false (0) if it is smaller.

Inquiry: # check: median seed-adjusted z-score of GGAGAGACCAGUAAACCGATT against NSFL1C is greater than or equal to -0.1
Reply text: true (1)

Inquiry: Reported median seed-adjusted z-score at or above -0.1? CAACCAAGGUCAGUCUUAUTT against TFCP2L1
Reply text: false (0)

----------
Assay: Novel Modifiers of Survival Motor Neuron (SMN) Protein: Gene Identification via Genome-wide siRNA Screen;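 also: luminescence tracks full-length SMN protein made from the SMN2 reporter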
Settings: HEK293T SMN2-luciferase reporter, siRNA knockdown, 72 h; actives lie on both sides
Among all 31,000 sequences or so, about 1,400 (4.5%) were called active. The sample as a whole holds a higher share of actives than the screen did.
Please enter label 1 where median seed-adjusted z-score is greater than or equal to 0, and label 0 where it is lower.

Worked set:
CGAGUUACUUUUCAGCUAATT against MYH4: label 0
GGAGCUUCCCUAUAGUGAATT against HDAC3: label 1
GCCCAUCACCUCUUCAUGATT against RAMP1: label 0
GCCUAGAUGAGCGAAUUUATT against LSM3: label 0
CCGCGCAGUUCAUCUCAAATT against SNX15: label 0
CAACCCUACCAAUGCUACUTT against PTP4A2: label 0
CUAUGCCCGUGGUCACUAUTT against TUBA4A: label 0
GCAGGGAUCUUACAUCUAUTT against CENTD2: label 0

Inquiry: Threshold query (median seed-adjusted z-score >= 0) on CGGACGAAGAGAUUGGGAATT against DRAP1
Reply text: label 1

Inquiry: API: above_or_equal(metric=median seed-adjusted z-score, cutoff=0) for item CUACCAGCAUGUGAUGUUUTT against CH25H
Reply text: label 0

Inquiry: For this sequence, is measured median seed-adjusted z-score 0 or higher? GGCCUACUGUGGAAUUGGATT against TTC3
Reply text: label 0

Inquiry: Hello, I need to know if GCAGUUCACCCAUCCAGUATT against THY1 has measured median seed-adjusted z-score not below 0. Thanks!
Reply text: label 0

Inquiry: Textbook exercise: given the entry GCUGUGAGAUUUACUCUGATT against ALAS1 , state whether its median seed-adjusted z-score is greater than or equal to 0.
Reply text: label 0

Inquiry: Please indicate if the recorded median seed-adjusted z-score for GGAUGUUUUUCGAAGGAUATT against RHEB meets or exceeds 0.
Reply text: label 0

----------
Test: Novel Modifiers of Survival Motor Neuron (SMN) Protein: Gene Identification via Genome-wide siRNA Screen;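 also: luminescence tracks full-length SMN protein made from the SMN2 reporter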
Conditions: HEK293T SMN2-luciferase reporter, siRNA knockdown, 72 h; actives lie on both sides
Screen size: about 31,000 sequences; about 1,400 (4.5%) were called active. This excerpt belongs to a sample that is enriched for actives.
assayMetric: median seed-adjusted z-score

CUACUCAACAGACAUAAUATT against TRIP13: 1 (active)
GAAUGAGGUUGACUUCUAUTT against CASQ2: 0.4 (inactive)

Inquiry: Which median seed-adjusted z-score is listed for UAAUAAUUCUCACUCCUAATT against FZD5 ?
Reply text: -0.129 (inactive)

Inquiry: I would be grateful if you could share the reported median seed-adjusted z-score for GCCUUUGGUUCGCAAGUUUTT against DYRK2 .
Reply text: 0 (inactive)

Inquiry: Using the record for GGAACAGCACAGAACAGCATT against ARID5A , report its median seed-adjusted z-score.
Reply text: 0.0642 (inactive)

Inquiry: For the sequence CAACUACACUGUCAACUACTT against DTX2 , what median seed-adjusted z-score is on record?
Reply text: 0.0597 (inactive)

Inquiry: // query median seed-adjusted z-score value for entry GAGCUAUAAUCAGACCUGUTT against ART5
Reply text: -0.354 (inactive)

Inquiry: Any idea what median seed-adjusted z-score was measured for CUUCUACAGUGGUCACCUATT against VPS29 ?
Reply text: -0.408 (inactive)

Inquiry: Any idea what its median seed-adjusted z-score is? The sequence is GUAUCAUGGAUGGAAAAGATT against ASRGL1
Reply text: 0 (inactive)

Inquiry: Entry GGUCACGGAUUGCUUUUUATT against DUS1L has what median seed-adjusted z-score?
Reply text: 0.0698 (inactive)

Inquiry: // median seed-adjusted z-score lookup, key: CGAUGAACGAGUACAUUGATT against GRIA2
Reply text: -1.02 (active)

----------
Test: Novel Modifiers of Survival Motor Neuron (SMN) Protein: Gene Identification via Genome-wide siRNA Screen;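 also: luminescence tracks full-length SMN protein made from the SMN2 reporter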
Conditions: HEK293T SMN2-luciferase reporter, siRNA knockdown, 72 h; actives lie on both sides
Out of some 31,000 sequences screened, about 1,400 (4.5%) were called active.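 Rule for the calls: active = median seed-adjusted z-score above 1 or below -1; inactive = the rest.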 The full list was thinned out, with actives kept by preference.
Bench note: report the call from 1 (yes) = active, 0 (no) = inactive

GAAUGGAAGAUUUCACCUUTT against SNAPC3: 1 (yes)
GCACUAAGAGUGACGUGUATT against PSKH1: 1 (yes)
GGUCCCAGCUUGAAGAGAATT against CSTB: 1 (yes)
GAAUUGGGCUUGUUGAUAUTT against KCNB2: 1 (yes)
GGUUCACGGUUCAAAAUCATT against SLC25A24: 0 (no)

Inquiry: What is the recorded call for this sequence in the test? GGAAGAGGAGUAGACCUUATT against RAB5A
Reply text: 0 (no)

Inquiry: Dear colleague, could you share the recorded outcome for CCAAUGCAGUGAUUACCGUTT against HSPA1L when you have a moment?
Reply text: 1 (yes)
